Tested on: Erysiphe graminis
Assay: Foliar fungal disease test on Erysiphe graminis, plants inoculated 24 hours before treatment (Table V)
Assay type: in vivo
Parameters: key: 4: no disease; 3: trace −5% of disease on untreated plants; 6-25% of disease on untreated plants; 1: 26-59% of disease on untreated plants; 60-100% of disease on untreated plants
Settings: plants inoculated 24 hours before treatment
MEASURED QUANTITY: disease control grading, ERYSIPHE GRAMINIS (BARLEY)

>>> measured("CO/C=C(/C(=O)OC)c1ccccc1COc1cccc(Cl)c1")
4
>>> measured("CO/C=C(/C(=O)OC)c1ccccc1COc1ccc(Cl)cc1")
4

---

Test system: foliar fungal diseases of plants
Assay type: in vivo
Settings: Venturia inaequalis on apple; applied to soil (roots) and foliage one or two days before inoculation
MEASURED QUANTITY: disease control grading, VENTURIA INAEQUALIS (APPLE)

>>> measured("CO/C=C(/C(=O)OC)c1ccccc1COc1cccc(Oc2ccccc2)n1")
"2 (6-25% of disease on untreated plants)"
